Tested on: HOP-92
Test: NCI tumour cell line growth inhibition, 48 h
Active and inactive are the calls of the source. Rule as the data show it: active = GI50 up to about 1.1 µM and inactive = higher.
READOUT KIND: GI50

Past entries and their recorded results:
COMPOUND	GI50
Nc1nc(Cl)cc(NCCO)n1	> 100 µM (inactive)
O=C1OC(CC(=O)c2ccc(F)cc2)C(Cl)=C1Cl (stereo not drawn)	20 µM (inactive)

Now take the following compound into account.
### Prompt Field request: GI50 | item: CCCCN(CCCC)C(=O)C(=O)C(C(=O)c1ccc(OC)cc1)c1ccc(OC)cc1 (stereo not drawn)
### Response 27.4 µM (inactive)

----------
Tested on: HT-29
Assay: NCI tumour cell line growth inhibition, 48 h
The source made the active and inactive calls. Rule as the data show it: active = GI50 up to about 1.1 µM and inactive = higher.
Your response should consist of one outcome taken from active, inactive

These solved cases illustrate the format of a correct answer.
COMPOUND	ANSWER LABEL
C=CCOC(=O)c1c(C)[n+]([O-])c2cc(Cl)c(Cl)cc2[n+]1[O-]	inactive
N#C[BH2-][n+]1cn(C2CC(OP(=O)(O)OCC3OC(n4ccc(N)nc4=O)CC3O)C(CO)O2)c2nc(N)[nH]c(=O)c21 (centres undefined)	inactive

### Prompt In this assay, the call recorded for COC(=O)C1C(/C=C/c2ccoc2)ON2CCC[C@@H]12 (some centres undefined) was what?
### Response inactive

### Prompt Same question, COC1/C=C/C(C)C(C(C)C(OC)C(C)CCC(=O)C(C)C(CCC(=O)O)OC)OC(=O)/C=C/C=C(\C)CC(OC)CC2=CC(=O)O[C@@H](C(C)C(OC)CC(OC)/C=C/C(C)C(OC)C1)[C@H]2O (some centres undefined) this time
### Response active

----------
System: SK-OV-3
Experiment: NCI tumour cell line growth inhibition, 48 h
Calls of active or inactive are those of the source. Cut-off read from the data, not from the text of the source: active = GI50 up to about 1.1 µM and inactive = higher.
READOUT KIND: GI50

Solved entries (count: 4):
COMPOUND	GI50
C[C@]12CC[C@H]3[C@@H](CCC4=C/C(=N/OCCN5CCCCC5)CC[C@@]43C)[C@@H]1CC[C@@H]2O	15.2 µM (inactive)
O=C1NC2(CCCCC2)C(=O)N1CCN(CCCl)CCCl	171 µM (inactive)
O=C(CC(=O)N1N=C(c2ccccc2)C(/N=N/c2ccccc2Cl)C1=O)Nc1ccccc1Cl (stereo not drawn)	28.6 µM (inactive)
Clc1ccc2ns[s+]c2c1	> 100 µM (inactive)

### Prompt So what GI50 did N=C(NC(=N)Nc1ccc(S(=O)(=O)Nc2cnc3ccccc3n2)cc1)Nc1ccc(Br)cc1 get with SK-OV-3?
### Response > 100 µM (inactive)

### Prompt Could you do the same for Nn1c(CCCl)nc2c(Br)cc(Br)cc2c1=O , please?
### Response 33.1 µM (inactive)

### Prompt Next up: C/C(=C\c1ccccn1)c1ccccn1
### Response > 100 µM (inactive)

### Prompt Here is the next compound: COC1CC(O[C@H]2CC[C@@]3(C)[C@@H](CC[C@]4(O)[C@@H]3CC[C@]3(C)[C@@H](C(C)=O)[C@H](OC(=O)CC(C)C)[C@@H](OC(=O)c5ccccc5)[C@@]34O)C2)OC(C)C1OC1CC(OC)C(OC2OC(C)C(O)C(OC)C2O)C(C)O1 (stereo partly drawn)
### Response > 25 µM (inactive)

### Prompt Also check NC(CCCNc1ccc(O)cc1)C(=O)O (stereo not drawn)
### Response > 100 µM (inactive)

### Prompt Now consider CC1(C)Cc2nc3c(cc2C(=O)C1/C=N/C(C#N)=C(\N)C#N)C(=O)C(/C=N/C(C#N)=C(\N)C#N)C(C)(C)C3 (stereo not drawn) and answer again.
### Response 3.02 µM (inactive)

### Prompt Repeat for the following compound: O=C(O)CCc1nc2c(n1Cc1ccccc1)C(=O)c1ccccc1C2=O
### Response 69.3 µM (inactive)

### Prompt And then Oc1ccc(Cl)cc1-c1nc(S)nc(-c2ccccc2)c1Cl , what is it?
### Response > 96.4 µM (inactive)

### Prompt Can you check Cc1cc2nn(C3CCCCO3)nc2cc1C (stereo not drawn) next?
### Response > 100 µM (inactive)
